Would you kindly list Relative Affinity for each of these binders?
Biological target: T1, sIL-6R (soluble IL-6 receptor; SBH Sciences) (human, UniProt P08887 20-365)
T1 construct: also called human IL-6R
T1 sequence: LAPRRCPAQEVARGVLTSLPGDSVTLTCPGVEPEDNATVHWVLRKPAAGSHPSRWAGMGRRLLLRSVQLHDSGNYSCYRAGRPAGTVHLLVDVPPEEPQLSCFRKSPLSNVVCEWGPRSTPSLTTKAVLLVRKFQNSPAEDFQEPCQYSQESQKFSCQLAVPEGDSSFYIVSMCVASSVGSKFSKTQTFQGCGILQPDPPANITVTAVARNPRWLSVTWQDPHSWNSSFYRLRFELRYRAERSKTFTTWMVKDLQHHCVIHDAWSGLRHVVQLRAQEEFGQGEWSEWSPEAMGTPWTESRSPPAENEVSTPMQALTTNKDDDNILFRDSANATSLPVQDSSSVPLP
Test: SPR (BIAcore 3000), antibody on chip, sIL-6R analyte, 25 C

Below are worked cases with known answers.
INSERT INTO results (binder, result_type, measured_value) VALUES
  ('243# (antibody, human IgG1, kappa, V domains shown) VH: QVQLQESGPGLVRPSQTLSLTCTVSGYSITSDHAWSWVRQPPGRGLEWIGYISYSGMITYNPSLKSRVTMLRDTSKNQFSLRLSSVTAADTAVYYCARCLARTTAIDFWGQGSLVTVSS VL: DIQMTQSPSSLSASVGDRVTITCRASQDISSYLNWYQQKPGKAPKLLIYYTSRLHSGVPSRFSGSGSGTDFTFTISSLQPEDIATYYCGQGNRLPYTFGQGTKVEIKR', 'Relative Affinity', '11.6 fold vs 25 (Tocilizumab)'),
  ('230# (antibody, human IgG1, kappa, V domains shown, also called Sample # 230) VH: QVQLQESGPGLVRPSQTLSLTCTVSGYSITSDHAWSWVRQPPGRGLEWIGYISYSGMITYNPSLKSRVTMLRDTSKNQFSLRLSSVTAADTAVYYCARCLARTTAIDFWGQGSLVTVSS VL: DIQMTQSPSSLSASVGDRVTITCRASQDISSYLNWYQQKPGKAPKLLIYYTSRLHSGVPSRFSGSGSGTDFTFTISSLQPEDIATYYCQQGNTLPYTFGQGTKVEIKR', 'Relative Affinity', '7.1 fold vs 25 (Tocilizumab)');

Read the next record carefully.
Field Relative Affinity (entry Tocilizumab (antibody, human IgG1, kappa, V domains shown, also called 25; 25(control)) VH: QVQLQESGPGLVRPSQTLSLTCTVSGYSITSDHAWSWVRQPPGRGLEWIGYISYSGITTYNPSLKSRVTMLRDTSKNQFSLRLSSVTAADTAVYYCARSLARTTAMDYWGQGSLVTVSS VL: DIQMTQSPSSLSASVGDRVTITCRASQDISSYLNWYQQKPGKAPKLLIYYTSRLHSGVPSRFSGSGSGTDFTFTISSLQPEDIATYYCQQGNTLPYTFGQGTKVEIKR ) reads 1 fold vs 25 (Tocilizumab)

Data provenance is patent US20190315854A1.
